Tested Target: Apoptosis regulator Bcl-2 (Homo sapiens, UniProt P10415)
Sequence (P10415 whole entry): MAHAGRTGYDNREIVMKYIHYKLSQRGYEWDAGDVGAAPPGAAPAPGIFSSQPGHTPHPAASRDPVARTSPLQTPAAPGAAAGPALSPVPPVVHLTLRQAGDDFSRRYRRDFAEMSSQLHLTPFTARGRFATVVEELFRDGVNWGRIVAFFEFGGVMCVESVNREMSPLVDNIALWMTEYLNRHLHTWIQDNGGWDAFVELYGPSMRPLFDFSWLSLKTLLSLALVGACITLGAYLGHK
pIC50: −log10 of the molar value.

Smiles Record | pIC50
CN(C)C(=O)[C@H](Cc1ccc(C(F)(F)F)cc1)NC(=O)/C(C#N)=C/c1ccccc1P(C)(C)=O | < 4.00

----------
Procedure Summary: Lipophilicity, logD of compound in octanol/water at pH 7.4 by shake-flask method
Format: physicochemical
Measured logD accompanies every entry in the list below.

Compound | logD
CN(C)C(=O)[C@H](Cc1ccc(C(F)(F)F)cc1)NC(=O)/C(C#N)=C/c1cccc(P(C)(C)=O)c1 | 2.2
CP(C)(=O)c1ccccc1/C=C(\C#N)C(=O)NCCc1ccccc1 | 1.7
CN(C)C(=O)[C@@H](Cc1ccc(C(F)(F)F)cc1)NC(=O)/C(C#N)=C/c1ccccc1P(C)(C)=O | 2.1
CN(C)C(=O)c1ccccc1/C=C(\C#N)C(=O)NC(Cc1ccc(C(F)(F)F)cc1)C(=O)N(C)C (racemic) | 2.2
CP(C)(=O)c1ccccc1/C=C(\C#N)C(=O)NCC1(c2ccccc2)CC1 | 2

Numbers sourced from ChEMBL document CHEMBL5532718.
